// reported Kd per item
target: T1, MAGI2-3 (human, UniProt Q86UL8 605-683); assay: holdup assay; biotinylated PBM peptide saturating streptavidin resin (biotin resin as reference); tag-PDZ at 4 uM in crude E. coli lysate, 15 min, filtration, free tag-PDZ by capillary electrophoresis; singlicate; BI cut-off 0.20; BI converted into KD with the peptide concentration back-calculated from FP; conditions: one partner purified
T1 construct: PDZ domain number 3 of human MAGI2; also called MAGI2 PDZ dom 3; source: E. coli, in crude cell lysate; not shown: His, N-terminal, kept
T1 sequence (Q86UL8 605-683): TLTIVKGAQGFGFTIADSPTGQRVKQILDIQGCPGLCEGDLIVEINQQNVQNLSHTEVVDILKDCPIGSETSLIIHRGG
Where no end group is shown, it is not given here. The star is where a group is joined. Biotin = O=C1N[C@H]2[C@H](CS[C@H]2CCCCC(=O)*)N1; TTDS = NCCCOCCOCCOCCCNC(=O)CCC(=O)*
Please reply with the bare figure in µM and do not write the unit itself.

{Biotin-TTDS}-PFDEDQHTQITKV (peptide, UniProt P60484 391-403, looked up, also called 13-mer PTEN peptide; extended wild-type peptide; source: synthetic peptide, bought: JPT Innovative Peptide Solutions (70%-80% purity)) [PTEN_13] | 30
{Biotin-TTDS}-DEDQHTQITRV (peptide, UniProt P60484 393-403, looked up, also called K402R mutant; source: synthetic peptide (Chemical Peptide Synthesis Service of the IGBMC, Fmoc)) [PTEN_KR] | 21
{Biotin-TTDS}-DEDQHTQITK(Ac)V (peptide, UniProt P60484 393-403, looked up, also called acetylated version of PTEN_11; acetylated peptide; source: synthetic peptide (Chemical Peptide Synthesis Service of the IGBMC, Fmoc)) [PTEN_Ac] | 15

Give the measured Kd of {Biotin-TTDS}-DEDQHTQITKV (peptide, UniProt P60484 393-403, looked up, also called 11-mer wild-type PTEN PBM peptide; native PTEN_11 PBM; source: synthetic peptide (Chemical Peptide Synthesis Service of the IGBMC, Fmoc)) [PTEN_11] .
47

Hello, the source for this data is paper PMC7774954, in case you need it.
